Test system: C. tropicalis 2808E
Consider the following molecules and their measured log10 MIC readings.
assay-readout: log10 MIC (log10 of the value in µg/mL)

>>> value_measured("CCCOC1CC(OCC23CC4C(C)CCC4C4(C=O)CC2C=C(C(C)C)C43C(=O)O)OC(C)C1OC (stereo not drawn) [Example 7]")
-2.52
>>> value_measured("COC1C(C)OC(OCC23CC4C(C)CCC4C4(C=O)CC2C=C(C(C)C)C43C(=O)O)C(O)C1SC (stereo not drawn) [Example 11]")
0.30
>>> value_measured("CC(=O)OC1C(C)OC(OCC23CC4C(C)CCC4C4(C=O)CC2C=C(C(C)C)C43C(=O)O)CC1SC(C)=O (stereo not drawn) [Example 42]")
0.00
>>> value_measured("CCCCCCCC(=O)OC1C(O)C(OCC23CC4C(C)CCC4C4(C=O)CC2C=C(C(C)C)C43C(=O)O)OC(C)C1OC (stereo not drawn) [Example 24]")
-1.22
>>> value_measured("CCCCCCOC1C(O)C(OCC23CC4C(C)CCC4C4(C=O)CC2C=C(C(C)C)C43C(=O)O)OC(C)C1OC (stereo not drawn) [Example 3]")
0.00
>>> value_measured("CCCOC1C(C)OC(OCC23CC4C(C)CCC4C4(C=O)CC2C=C(C(C)C)C43C(=O)O)CC1OC (stereo not drawn) [Example 9]")
1.20

====

Tested on: C. albicans 1208E
Consider the following compounds and their measured log10 MIC readings.
assay-readout: log10 MIC (log10 of the value in µg/mL)

>>> value_measured("COC1C(C)OC(OCC23CC4C(C)CCC4C4(C=O)CC2C=C(C(C)C)C43C(=O)O)C(O)C1N=[N+]=[N-] (stereo not shown)")
0.00
>>> value_measured("CCCCCCCC(=O)OC1C(O)C(OCC23CC4C(C)CCC4C4(C=O)CC2C=C(C(C)C)C43C(=O)O)OC(C)C1OC (stereo not shown)")
-0.22
>>> value_measured("COC1C(C)OC(OCC23CC4C(C)CCC4C4(C=O)CC2C=C(C(C)C)C43C(=O)O)C(O)C1SC (stereo not shown)")
0.00
>>> value_measured("CCCOC1C(C)OC(OCC23CC4C(C)CCC4C4(C=O)CC2C=C(C(C)C)C43C(=O)O)CC1OC (stereo not shown)")
0.90
>>> value_measured("CCCCCCOC1C(O)C(OCC23CC4C(C)CCC4C4(C=O)CC2C=C(C(C)C)C43C(=O)O)OC(C)C1OC (stereo not shown)")
0.60
>>> value_measured("CCCOC1CC(OCC23CC4C(C)CCC4C4(C=O)CC2C=C(C(C)C)C43C(=O)O)OC(C)C1OC (stereo not shown)")
-1.82
>>> value_measured("CC(=O)OC1C(C)OC(OCC23CC4C(C)CCC4C4(C=O)CC2C=C(C(C)C)C43C(=O)O)CC1SC(C)=O (stereo not shown)")
-1.22

====

// MIC collected for C. neoformans 2867E
assay-readout: MIC (µg/mL)

>>> value_measured("CCCCCCOC1C(O)C(OCC23CC4C(C)CCC4C4(C=O)CC2C=C(C(C)C)C43C(=O)O)OC(C)C1OC (stereo not shown)")
31
>>> value_measured("COC1C(N=[N+]=[N-])CC(OCC23CC4C(C)CCC4C4(C=O)CC2C=C(C(C)C)C43C(=O)O)OC1C (stereo not shown)")
31
>>> value_measured("COCOC1CC(OCC23CC4C(C)CCC4C4(C=O)CC2C=C(C(C)C)C43C(=O)O)OC(C)C1OC (stereo not shown)")
31
>>> value_measured("COC1CC(OCC23CC4C(C)CCC4C4(C=O)CC2C=C(C(C)C)C43C(=O)O)OC(C)C1OC (stereo not shown)")
31
>>> value_measured("COC1C(C)OC(OCC23CC4C(C)CCC4C4(C=O)CC2C=C(C(C)C)C43C(=O)O)C(O)C1SC (stereo not shown)")
0.05
>>> value_measured("CCCCCCCC(=O)OC1C(O)C(OCC23CC4C(C)CCC4C4(C=O)CC2C=C(C(C)C)C43C(=O)O)OC(C)C1OC (stereo not shown)")
0.25
>>> value_measured("CCCOC1C(C)OC(OCC23CC4C(C)CCC4C4(C=O)CC2C=C(C(C)C)C43C(=O)O)CC1OC (stereo not shown)")
125

====

Test system: C. albicans 1208E
Assay: in vitro antifungal MIC, two-fold serial dilution
Type: cell-based
Details: Candida albicans, 24 to 48 hours at 37° C
assay-readout: MIC

>>> value_measured("COCOC1CC(OCC23CC4C(C)CCC4C4(C=O)CC2C=C(C(C)C)C43C(=O)O)OC(C)C1OC (stereo not shown) [Example 8]")
"0.25 µg/mL"
>>> value_measured("COC1C(N=[N+]=[N-])CC(OCC23CC4C(C)CCC4C4(C=O)CC2C=C(C(C)C)C43C(=O)O)OC1C (stereo not shown) [Example 15]")
"≤ 0.001 µg/mL"
>>> value_measured("COC1CC(OCC23CC4C(C)CCC4C4(C=O)CC2C=C(C(C)C)C43C(=O)O)OC(C)C1OC (stereo not shown) [Example 5]")
"≤ 0.001 µg/mL"
>>> value_measured("COC1CCC(OCC23CC4C(C)CCC4C4(C=O)CC2C=C(C(C)C)C43C(=O)O)OC1C (stereo not shown) [Example 39]")
"0.06 µg/mL"

====

// MIC collected for C. neoformans 2867E
assay-readout: MIC (µg/mL)

>>> value_measured("COC1CCC(OCC23CC4C(C)CCC4C4(C=O)CC2C=C(C(C)C)C43C(=O)O)OC1C (stereo not shown) [Example 39]")
62
>>> value_measured("CCCOC1CC(OCC23CC4C(C)CCC4C4(C=O)CC2C=C(C(C)C)C43C(=O)O)OC(C)C1OC (stereo not shown) [Example 7]")
125
>>> value_measured("COC1C(C)OC(OCC23CC4C(C)CCC4C4(C=O)CC2C=C(C(C)C)C43C(=O)O)C(O)C1N=[N+]=[N-] (stereo not shown) [Example 10]")
4
